# Experimental protocol: Toxicity in BALB/c mouse implanted with mouse 4T1 cells assessed as effect on BUN level at 0.2 mmol/Kg, po administered once every day for 14 days by routine blood analysis
# Assay type: organism-based
# Experimental parameters: in vivo, 336 h, time 14 day
Observable: Activity

Compound	Value measured
C[N+]1(C)CCCC1C(=O)[O-] (centres undefined)	Non-Toxic
CCCCOC(=O)C1CCC[N+]1(C)C.[Cl-] (centres undefined)	Non-Toxic
CCCCCCCCOC(=O)C1CCC[N+]1(C)C.[Cl-] (centres undefined)	Non-Toxic
CCCCCCCCCCCCOC(=O)C1CCC[N+]1(C)C.[Cl-] (centres undefined)	Non-Toxic
